Origin of values: patent EP0645379A2

# STUDY TARGET: partially purified human EGF (epidermal growth factor) receptor tyrosine kinase (Homo sapiens, UniProt P00533)
# Construct: The cell membrane fraction, a partially purified EGF receptor, was used as an enzyme source; endogenous in cells; host or cells: A431 human epidermoid carcinoma cells (membrane fraction, 10000xg pellet)
# Sequence (P01133 971-1023): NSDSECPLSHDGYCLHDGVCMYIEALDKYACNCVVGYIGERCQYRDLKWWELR
# Sequence (P00533 25-1210): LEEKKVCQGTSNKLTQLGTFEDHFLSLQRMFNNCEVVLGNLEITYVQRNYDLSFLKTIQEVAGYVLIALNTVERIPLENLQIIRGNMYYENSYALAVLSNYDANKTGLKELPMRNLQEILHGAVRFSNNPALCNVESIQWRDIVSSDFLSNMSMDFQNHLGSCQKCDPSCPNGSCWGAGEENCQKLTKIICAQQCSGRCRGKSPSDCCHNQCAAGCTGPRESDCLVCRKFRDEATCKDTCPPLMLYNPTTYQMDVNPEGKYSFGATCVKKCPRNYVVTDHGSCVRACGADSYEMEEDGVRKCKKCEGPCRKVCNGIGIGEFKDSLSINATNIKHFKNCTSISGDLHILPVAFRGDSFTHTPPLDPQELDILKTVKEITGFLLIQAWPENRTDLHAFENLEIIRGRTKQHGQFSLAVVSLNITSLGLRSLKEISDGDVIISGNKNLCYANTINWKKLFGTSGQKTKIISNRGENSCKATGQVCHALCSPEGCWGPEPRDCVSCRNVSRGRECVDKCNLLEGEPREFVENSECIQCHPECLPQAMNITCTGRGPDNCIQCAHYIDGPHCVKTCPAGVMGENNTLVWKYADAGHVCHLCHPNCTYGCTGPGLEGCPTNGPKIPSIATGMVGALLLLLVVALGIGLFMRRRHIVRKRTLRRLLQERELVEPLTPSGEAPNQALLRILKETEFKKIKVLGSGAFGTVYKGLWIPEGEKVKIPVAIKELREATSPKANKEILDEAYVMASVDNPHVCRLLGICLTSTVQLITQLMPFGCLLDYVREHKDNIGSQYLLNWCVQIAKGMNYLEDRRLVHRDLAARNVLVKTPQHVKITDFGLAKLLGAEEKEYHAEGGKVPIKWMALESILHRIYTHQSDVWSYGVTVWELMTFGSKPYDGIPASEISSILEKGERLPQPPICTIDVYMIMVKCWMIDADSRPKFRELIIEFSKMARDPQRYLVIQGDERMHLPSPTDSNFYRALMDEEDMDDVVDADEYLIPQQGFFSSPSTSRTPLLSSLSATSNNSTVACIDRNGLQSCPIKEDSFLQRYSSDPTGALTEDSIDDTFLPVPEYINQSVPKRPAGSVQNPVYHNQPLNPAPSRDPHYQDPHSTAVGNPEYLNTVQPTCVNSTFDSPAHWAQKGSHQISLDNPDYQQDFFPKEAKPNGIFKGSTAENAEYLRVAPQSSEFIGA
# ASSAY DETAILS: biochemical
# RUN PARAMETERS: Table-2 continued; […]; 4) hydrochloride; read-out: Tyrosine kinase inhibitory activity (IC50, μ)
pIC50: −log10 of the molar value.
MEASURED PARAMETER: pIC50

# COMPOUND, MEASURED PARAMETER, NUMERIC READOUT
measured = [
    ("COc1ccc(C(=O)C#CC(C)(C)NCCc2c[nH]c3ccccc23)cc1OC", "pIC50", 7.43),
    ("COc1ccc(C(=O)C#CC(C)(C)Nc2c(C)cccc2C)cc1OC", "pIC50", 5.66),
    ("COc1ccc(C(=O)C#CC(C)(NCCCO)C(C)C)cc1OC (centres unmarked)", "pIC50", 6.03),
    ("COc1ccc(OC)c(C(=O)C#CC(C)(C)N2CCCCC2)c1", "pIC50", 5.85),
    ("COc1ccc(C(=O)C#CC(C)(C)NCC(C)C)cc1OC", "pIC50", 7.18),
    ("COc1ccc(C(=O)C#CC(C)(C)N(C)C)cc1OC", "pIC50", 6.48),
    ("CCN(CC)CC#CC(=O)c1ccc(OC)c(OC)c1", "pIC50", 7.89),
    ("CC(C)(C#CC(=O)c1ccc(S(C)(=O)=O)cc1)N1CCCCC1", "pIC50", 5.59),
    ("COc1cccc(C(=O)C#CC(C)(C)N2CCCCC2)c1OC", "pIC50", 6.03),
    ("COc1ccc(C(=O)C#CC(C)(C)NCc2ccccc2)cc1OC", "pIC50", 6.72),
    ("COc1ccc(C(=O)C#CCNC(=O)OC(C)(C)C)cc1OC", "pIC50", 7.16),
    ("COc1ccc(C(=O)C#CC(C)(C)Nc2ccccc2)cc1OC", "pIC50", 6.92),
    ("COc1ccc(C(=O)C#CC(C)(C)Nc2cccc(Cl)c2)cc1OC", "pIC50", 7.02),
    ("COc1ccc(C(=O)C#CC(C)(C)Nc2cccnc2)cc1OC", "pIC50", 6.52),
]

====

Each entry below carries its recorded IC50.
# STUDY TARGET: partially purified human EGF (epidermal growth factor) receptor tyrosine kinase (Homo sapiens)
# Construct: The cell membrane fraction, a partially purified EGF receptor, was used as an enzyme source; endogenous in cells; host or cells: A431 human epidermoid carcinoma cells (membrane fraction, 10000xg pellet)
# ASSAY DETAILS: biochemical
# RUN PARAMETERS: Table-2; […]; 3) fumarate, 4) hydrochloride; read-out: Tyrosine kinase inhibitory activity (IC50)
Counter-ions that a name gives are not always drawn.

# MOLECULE, IC50
rows = [
    ("COc1ccc(C(=O)C#CC(=O)Nc2ccccc2)cc1OC", "1000 nM"),
    ("CCN(CC)C(C)(C)C#CC(=O)c1ccc(OC)c(OC)c1", "730 nM"),
    ("CSc1ccc(C(=O)C#CC(C)(C)N2CCCCC2)cc1", "1300 nM"),
    ("COc1ccc(C(=O)C#CC(C)(C)N)cc1OC [compound 395, hydrochloride]", "39 nM"),
    ("COc1ccc(C(=O)C#CC(C)(C)N2CCCCC2)cc1OC", "1300 nM"),
    ("CCN(CC)C1(C#CC(=O)c2ccc(OC)c(OC)c2)CCCCC1", "1700 nM"),
    ("COc1ccc(C(=O)C#CCN(C(C)C)C(C)C)cc1OC", "35 nM"),
    ("COc1ccc(C(=O)C#CC(C)(C)NC(=O)OCc2ccccc2)cc1OC", "660 nM"),
    ("COc1ccc(C(=O)C#CC(C)(C)O)cc1OC", "150 nM"),
    ("COc1ccc(C(=O)C#CCN2CCCCC2)cc1OC", "470 nM"),
    ("COc1cc(C(=O)C#CC(C)(C)N2CCCCC2)cc2c1OCO2", "350 nM"),
    ("COc1ccc(C(=O)C#CCN2C(C)(C)CCCC2(C)C)cc1OC", "180 nM"),
    ("COc1ccc(C(=O)C#CC(C)(C)NC(=O)OCc2cccnc2)cc1OC", "960 nM"),
    ("CCOc1cc(C=C(C#N)C(N)=O)cc(CSc2ccccc2)c1O [[drawing] 2)]", "3200 nM"),
    ("CCN(CC)C(C)(C#CC(=O)c1ccc(OC)c(OC)c1)C(C)C (stereo not drawn)", "2900 nM"),
    ("COc1ccc(C(=O)C#Cc2ccccn2)cc1OC", "240 nM"),
    ("COc1ccc(C(=O)C#Cc2ccccc2)cc1OC", "670 nM"),
    ("COc1ccc(C(=O)C#CC(C)(C)NC(=O)OCc2ccc[n+]([O-])c2)cc1OC", "660 nM"),
]
